Test system: MDA-MB-435 melanoma
protocol: NCI-60 one-dose screen, 48 h (100 = growth as untreated, 0 = no growth, -100 = all killed)
measurement.conditions: 10 µM unless noted
The panel holds about 83,000 compounds, 20% with a hit somewhere; the sample as a whole holds those more often.
Measured growth by item
Could you give me the number in %? Just the number is fine.

# example entries with known answers
compound | unit.tag | growth
CCOc1cc2c(Cl)ncnc2c(OCC)c1OCC | % | 78.5
N=C(N)c1ccc(-c2ccc(-c3ccc(-c4cccs4)s3)s2)cc1 | % | 103
OB(O)c1cccc(-c2nc3ccc4[nH]ncc4c3c3c2CCCC3)c1F | % | 44.4
CCOC(=O)c1ccc(NC(=O)N2CC(C)OC(C)C2)cc1 (stereo not given) | % | 105
COC(=O)c1cc(=O)nc(N/N=C/c2ccco2)s1 | % | 114

IN: Tell me its growth given Cc1ccc(S(=O)(=O)C2=C3C(=C(c4ccccc4)c4ccccc43)CN(S(=O)(=O)c3ccc(C)cc3)C2)cc1 as the entry.
OUT: 74.2

IN: Tell me its growth given Cc1ccc(/C=C2\CN(C(=O)CCN3CCC(=NO)CC3)C/C(=C\c3ccc(C)cc3)C2=O)cc1 as the entry.
OUT: -39.8

IN: Tell me its growth given N[C@@H]1CCN(C(=O)c2cc3cc(Cl)c(F)c(F)c3[nH]2)C1 as the entry.
OUT: 97.3

IN: Tell me its growth given CCCCCCCCN(CCCCCCCC)CCCCCCNc1cc(OC)cc2cccnc12 as the entry.
OUT: 95.2

IN: Tell me its growth given NC1=C(/C(N)=N/O)C(c2ccccc2)c2ccc3ccccc3c2O1 (stereo not given) as the entry.
OUT: -56.2

---

Tested on: SF-295 CNS
protocol: NCI-60 one-dose screen, 48 h (100 = growth as untreated, 0 = no growth, -100 = all killed)
measurement.conditions: 10 µM unless noted
Description: Cells are grown in 96 well plates and exposed to the test compound for 48 hours. Compounds are tested at a single concentration, which is 10^-5 M for most compounds. The reported endpoint is percent growth (GI% or GIPRCNT), where numbers from 0 - 100% represent growth inhibition, and numbers from -100% - 0 represent cell death. For example, a value of 40 represents 60% growth inhibition. A value of 0 means no net growth occurred over the course of the experiment. […]
This is part of a sample that, as a whole, favours compounds with a hit. Of some 83,000 tested, about 20% had one in any assay.
Measured growth by item
Could you give me the number in %? Just the number is fine.

compound | unit.tag | test.result
CCN(CC)c1ccc(N=O)cc1 | % | 92.7
S=c1[nH]nc(-c2cc3ccc2CCc2ccc(cc2)CC3)n1C1CC1 | % | 93.8
COc1ccc(/C=C2\Oc3cc(OCCCN4CCCC4)ccc3C2=O)cc1 | % | 98.7
COc1ccc(Nc2ncccc2C(=O)NCc2cn(Cc3cccc(Oc4ccccc4)c3)nn2)c(OC)c1 | % | 7.69
COc1ccc(CNCCCN2C(=O)c3ccc4c5c(ccc(c35)C2=O)C(=O)N(CCCNCCCCNCCCN)C4=O)c(OC)c1OC | % | 31.4
O=C(NCCNc1nccc(-n2ccc3cccnc32)n1)c1ccc(C(F)(F)F)cc1 | % | 101

IN: Fetch value of growth on SF-295 CNS for C=C(C)[C@@H]1CC[C@]2(C(=O)O)CC[C@]3(C)[C@H](CC[C@@H]4[C@@]5(C)C[C@@H](CC#Cc6ccc(C(F)(F)F)cc6)[C@H](O)C(C)(C)[C@@H]5CC[C@]43C)[C@@H]12 .
OUT: -21.6

IN: Fetch value of growth on SF-295 CNS for N[C@H]1CN(C(=O)c2cc3cc(Br)c(F)c(F)c3[nH]2)C[C@@H]1O .
OUT: 104

IN: Fetch value of growth on SF-295 CNS for O=C(NCCCNc1nccc(-n2ccc3cccnc32)n1)c1c(F)cccc1F .
OUT: 98.4
